test system: E. aerogenes (MDR); test: MIC assay; format: cell-based; details: Gram-negative
quantity.measured: MIC (µM)
The reply should be a number in µM, with the unit left off.

A selection of reference data follows.
Ac-GLRKMLRKFMNKIKR-NH2 [P-α-06, Ac-GLRKMLRKFMNKIKR-NH2]	25
Ac-GLRKALRKFANKIKR-NH2 [P-α-05, Ac-GLRKALRKFANKIKR-NH2]	50
Ac-GLFKFLRKFFNKIKR-NH2 [P-β, Ac-GLFKFLRKFFNKIKR-NH2]	12.5
Ac-GLRKILRKFINKIKR-NH2 [P-α-03, Ac-GLRKILRKFINKIKR-NH2]	12.5
Ac-GLRKFLRKFFNKIKR-NH2 [P-α, Ac-GLRKFLRKFFNKIKR-NH2]	12.5

Task item: I am curious: what MIC value has been reported for Ac-GLRKVLRKFVNKIKR-NH2 [P-α-01, Ac-GLRKVLRKFVNKIKR-NH2] ?
Reply: 50

Task item: Reported MIC for Ac-GLWKWLRKFWNKIKR-NH2 [P-β-02, Ac-GLWKWLRKFWNKIKR-NH2] : what is it?
Reply: 25

Task item: Can you look up the measured MIC of Ac-GLFKFLRKFFNFIKR-NH2 [P-γ, Ac-GLFKFLRKFFNFIKR-NH2] for me?
Reply: 50

Task item: I'd like to know its MIC. The substance in question is Ac-GLRKLLRKFLNKIKR-NH2 [P-α-04, Ac-GLRKLLRKFLNKIKR-NH2]
Reply: 6.25

====

Parameter: CC50. Scope: all listed entries.
assay: Cytotoxicity assay; type: cell-based, human
Give a bare numeral; the unit µM is implied.

Ac-GLFKFLRKFFNKIKR-NH2 [P-β, Ac-GLFKFLRKFFNKIKR-NH2]	28.2

Let us move to another entry and its CC50.
Task item: Consider the substance Ac-GLRKLLRKFLNKIKR-NH2 [P-α-04, Ac-GLRKLLRKFLNKIKR-NH2] and give its measured CC50.
Reply: 193

====

assay: Hemolytic assay; format: cell-based, human
quantity.measured: hemolysis at 50 µM (%)
Numbers only; they are read as %.

Task item: Which hemolysis at 50 µM is listed for Ac-GLRKFLRKFFNKIKR-NH2 [P-α, Ac-GLRKFLRKFFNKIKR-NH2] ?
Reply: 1.5
